# target.desc: Progesterone receptor (Homo sapiens)
# assay.text: qHTS assay to identify small molecule agonists of the progesterone receptor (PR) signaling pathway (AID 1346784); also: nearly all actives have a fitted effect of over 30% in size
# measurement.setup: PR-UAS-bla HEK293T, beta-lactamase FRET ratio, 16 h; series mostly up to 92.4 µM
Records with an inconclusive call do not appear. Activity calls are given as the source filed them. Calls follow the shape of the full dose curve. Where a SMILES comes first, the peptide text is derived from it. [ ]: non-standard residue; d: D form. pGlu = O=C1CC[C@@H](C(=O)O)N1
parameter: activation

{"compound": "c1ccc(Cc2ccccc2)cc1", "target.desc": "Progesterone receptor (Homo sapiens)", "activation": "inactive"}
{"compound": "CC(=O)c1ccc2ccccc2c1", "target.desc": "Progesterone receptor (Homo sapiens)", "activation": "inactive"}
{"compound": "Clc1cc(Cl)cc(Cl)c1", "target.desc": "Progesterone receptor (Homo sapiens)", "activation": "inactive"}
{"compound": "C=C(C)C(=O)OCC(O)CO (centres undefined)", "target.desc": "Progesterone receptor (Homo sapiens)", "activation": "inactive"}
{"compound": "CC(C)[C@H]1CC[C@@H](C)CC1=O", "target.desc": "Progesterone receptor (Homo sapiens)", "activation": "inactive"}

Kindly state the measured activation obtained for C[N+]12CCC(CC1)C(OC(=O)C(O)(c1ccccc1)c1ccccc1)C2 (centres undefined) with Progesterone receptor (Homo sapiens). inactive

One more compound: CN(C)[C@@H]1C(=O)C(C(=O)NCN2CCCC2)=C(O)[C@@]2(O)C(=O)C3=C(O)c4c(O)cccc4[C@@](C)(O)C3C[C@@H]12 (some centres undefined) inactive

Similarly, CCNC(=O)[C@@H]1CCCN1C(=O)[C@H](CCCN=C(N)N)NC(=O)[C@H](CC(C)C)NC(=O)CNC(=O)[C@H](Cc1ccc(O)cc1)NC(=O)[C@H](CO)NC(=O)[C@H](Cc1c[nH]c2ccccc12)NC(=O)[C@H](Cc1cnc[nH]1)NC(=O)[C@@H]1CCC(=O)N1 ([pGlu]HWSYGLRP-NHEt) ? inactive

Follow-up item: NC(=O)NC1N=C([O][Al])NC1=O (centres undefined) inactive

Sourced from PubChem BioAssay (Tox21)
